- study system: recombinant human SOS1 polypeptide (amino acids 560-1049) (Homo sapiens (Human))
- Sequence (Q07889 560-1049): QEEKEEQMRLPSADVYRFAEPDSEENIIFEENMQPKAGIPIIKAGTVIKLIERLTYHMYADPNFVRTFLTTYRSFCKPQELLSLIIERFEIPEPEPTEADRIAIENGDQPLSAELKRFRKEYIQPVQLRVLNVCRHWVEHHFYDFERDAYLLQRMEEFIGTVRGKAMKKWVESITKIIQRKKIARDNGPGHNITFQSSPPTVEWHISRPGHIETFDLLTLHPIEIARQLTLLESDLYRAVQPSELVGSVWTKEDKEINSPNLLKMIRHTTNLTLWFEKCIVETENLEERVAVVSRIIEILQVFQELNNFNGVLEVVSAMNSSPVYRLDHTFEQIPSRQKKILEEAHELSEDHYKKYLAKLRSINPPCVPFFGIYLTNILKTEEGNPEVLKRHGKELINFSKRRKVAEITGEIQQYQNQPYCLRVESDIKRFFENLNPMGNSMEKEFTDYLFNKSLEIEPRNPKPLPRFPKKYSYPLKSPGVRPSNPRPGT
- assay text: biochemical
- Format: binding
- test settings: HTRF displacement, Cy5 labelled tracer, Morrison equation for competitive binding; read-out: Ki, Inhibition of Labeled Tracer Binding to SOS1
reported metric: pKi
Answers are plain numbers, as −log10 of the molar value.

molecule: Cc1cc(F)ccc1[C@@H](C)Nc1nnc(C)c2cnc(N3CC(C)(N(C)C)C3)cc12
study system: recombinant human SOS1 polypeptide (amino acids 560-1049) (Homo sapiens (Human))
reported metric: pKi
recorded value: 7.19

molecule: Cc1c([C@@H](C)Nc2nnc(C)c3ccc(N4CCNS(=O)(=O)CC4)cc23)cccc1C(F)(F)F
study system: recombinant human SOS1 polypeptide (amino acids 560-1049) (Homo sapiens (Human))
reported metric: pKi
recorded value: 8.77

molecule: Cc1c(C#N)cccc1[C@@H](C)Nc1nnc(C)c2cnc(N3CCN(C(=O)C4CC4)CC3)cc12
study system: recombinant human SOS1 polypeptide (amino acids 560-1049) (Homo sapiens (Human))
reported metric: pKi
recorded value: 9.38

molecule: Cc1ncccc1[C@@H](C)Nc1nnc(C)c2ccc(N3CCOCC3)cc12
study system: recombinant human SOS1 polypeptide (amino acids 560-1049) (Homo sapiens (Human))
reported metric: pKi
recorded value: 7.34

Return reported pKi values for all items listed beneath this line.
1. Cc1c(C#N)cccc1[C@@H](C)Nc1nnc(C)c2cnc(N3CC4(CCCN4C)C3)cc12
2. Cc1nnc(N[C@H](C)c2ccc(F)cc2F)c2cc(N3CC(C)(N(C)C)C3)ncc12
3. Cc1c(C#N)cccc1[C@@H](C)Nc1nnc(C)c2cnc(N3CC4(CCN(C)C4)C3)cc12

Response:
1. 8.69
2. 7.40
3. 9.10

Return reported pKi values for all items listed beneath this line.
1. CNCc1nnc(N[C@H](C)c2cccc(C(F)(F)F)c2C)c2cc(N3C[C@H]4C[C@@H]3CO4)ncc12
2. COC1(C)CN(c2cc3c(N[C@H](C)c4cccc(C#N)c4C)nnc(C)c3cn2)C1
3. Cc1c([C@@H](C)Nc2nncc3ccc(OC4CCN(C)C4(C)C)cc23)cccc1C(F)(F)F (stereo partly drawn)
4. COCCN1C[C@H]2CC[C@@H]1CN2c1cc2c(N[C@H](C)c3cccc(C#N)c3C)nnc(C)c2cn1
5. Cc1nnc(N[C@H](C)c2cc(N)cc(C(F)(F)F)n2)c2cc(N3C[C@H]4C[C@@H]3CO4)ccc12
6. Cc1c([C@@H](C)Nc2nnc(C)c3ccc(N4CCC(C)(N)CC4)cc23)cccc1C(F)(F)F
7. Cc1nnc(N[C@H](C)c2cc(N)cc(C(F)(F)F)n2)c2cc(N3CC4CC(C3)O4)ccc12

Response:
1. 8.60
2. 8.51
3. 8.75
4. 9.17
5. 7.67
6. 10.30
7. 7.98
